From: paper PMC6614837

- EXPERIMENTAL_SYSTEM: RNase P holoenzyme from Thermotoga maritima (Thermotoga maritima, UniProt Q9X1H4)
- Sequence (Q9X1H4 whole entry): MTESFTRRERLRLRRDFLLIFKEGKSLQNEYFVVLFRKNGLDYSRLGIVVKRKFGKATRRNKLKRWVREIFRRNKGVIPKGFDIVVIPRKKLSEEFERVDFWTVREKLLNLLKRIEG
- ASSAY_REMARKS: Real-time fluorescence-based (FRET) RNase P activity assay with minihelix (Mh) substrate
- ASSAY_CONDITIONS: competitive inhibition model, varying fluorescent Mh substrate
MEASURED_PARAMETER: Ki (nM)
Only the number, expressed in nM, is required.

Give the measured Ki of O=C1c2ccccc2C(=O)c2c(O)c(O)cc(O)c21 [Purpurin, 1,2,4-trihydroxyanthraquinone] .
1900

---

- EXPERIMENTAL_SYSTEM: minihelix (Mh)
- ASSAY_REMARKS: Biolayer interferometry binding to biotinylated minihelix substrate
- ASSAY_CONDITIONS: BLI, 3′-biotinylated minihelix 10 μM on SSA biosensors
- Method: 3′-Biotinylated minihelix was purchased from Integrated DNA Technologies (IDT) (24-mer RNA sequence, 5′-[…]-3′-Biotin). The biotinylated minihelix was immobilized on Super Streptavidin (SSA) biosensors at a concentration of 10 μM. […]
MEASURED_PARAMETER: Kd (µM)
Only the number, expressed in µM, is required.

# COMPOUND, MEASUREMENT_UNITS, Kd
rows = [
    ("CN(C)c1ccc2nc3ccc(=[N+](C)C)cc-3sc2c1 [methylene blue, reference compound]", "µM", 35),
]

Note: attention shifts to another entry.
Give the measured Kd of CN(C)c1ccc([C+](c2ccc(N(C)C)cc2)c2ccc(N(C)C)cc2)cc1.[Cl-] [Gentian violet, reference compound] .
8

---

- EXPERIMENTAL_SYSTEM: RNase P holoenzyme from Thermotoga maritima (Thermotoga maritima)
- Construct: made in house
- ASSAY_REMARKS: Verification of deconvoluted hits by fluorescence- and gel-based assays with Mh substrate
- Type: biochemical
- ASSAY_CONDITIONS: 250 μM (fluorescence) and 500 μM (gel)
MEASURED_PARAMETER: Inhibition of RNase P in fluorescence and gel verification

# MOLECULE, EXPERIMENTAL_VALUE
rows = [
    ("Cc1cc(O)c2c(c1)C(=O)c1cc(O)cc(O)c1C2=O [emodin]", "did not inhibit RNase P"),
    ("N=C1C=CC(=C(c2ccc(N)cc2)c2ccc(N)cc2)C=C1 [Pararoseaniline]", "did not inhibit RNase P"),
]
